meta.source: patent US6586435B2

// inhibition at 0.1 µM lookup, one value per entry
# STUDY SYSTEM: 5-HT1A human receptors (Homo sapiens, UniProt P08908)
# Construct: expressed in transfected cells; host or cells: CHO cells
# Sequence (P08908 whole entry): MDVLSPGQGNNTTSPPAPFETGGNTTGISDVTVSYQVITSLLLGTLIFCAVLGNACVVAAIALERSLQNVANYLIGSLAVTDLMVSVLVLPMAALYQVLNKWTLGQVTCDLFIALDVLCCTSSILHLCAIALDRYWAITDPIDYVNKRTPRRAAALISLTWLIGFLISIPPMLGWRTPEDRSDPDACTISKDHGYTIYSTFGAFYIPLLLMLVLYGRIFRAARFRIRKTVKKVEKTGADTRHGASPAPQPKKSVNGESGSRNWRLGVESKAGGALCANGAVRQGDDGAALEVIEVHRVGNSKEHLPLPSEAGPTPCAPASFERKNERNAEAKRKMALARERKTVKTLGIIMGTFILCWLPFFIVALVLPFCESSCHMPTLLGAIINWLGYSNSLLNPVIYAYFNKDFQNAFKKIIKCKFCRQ
# PROTOCOL DETAILS: 5-HT1A radioligand receptor binding assay ([3H]-8-OH-DPAT)
# CONDITIONS: compound 10^−7 M, singlicate; membranes from CHO cells; [3H]-8-OH-DPAT 0.6-0.7 nM

In: Look up inhibition at 0.1 µM of CCCn1c(=O)n(C/C=C\CN2CCN(c3ccccc3)CC2)c2ccccc21 [Compound 52] and report it.
Out: 90%

In: Look up inhibition at 0.1 µM of Cn1c(=O)n(C/C=C/CN2CCc3c([nH]c4ccccc34)C2)c2ccccc21 [Compound 92] and report it.
Out: 88%

In: Look up inhibition at 0.1 µM of Cn1c(=O)n(C/C=C\CN2CCN(c3ccccc3)CC2)c2ccccc21 [Compound 35] and report it.
Out: 88%

In: Look up inhibition at 0.1 µM of O=c1[nH]c2ccccc2n1C/C=C\CN1CCN(c2cccc(C(F)(F)F)c2)CC1 [Compound 26] and report it.
Out: 94%

In: Look up inhibition at 0.1 µM of O=c1n(C/C=C/CN2CCN(c3cccc(Cl)c3)CC2)c2ccccc2n1CC1CCCCC1 [Compound 124] and report it.
Out: 99%
